targetOrTestSystem: hPASK (Homo sapiens)
Sequence (Q96RG2 999-1251 limits assumed): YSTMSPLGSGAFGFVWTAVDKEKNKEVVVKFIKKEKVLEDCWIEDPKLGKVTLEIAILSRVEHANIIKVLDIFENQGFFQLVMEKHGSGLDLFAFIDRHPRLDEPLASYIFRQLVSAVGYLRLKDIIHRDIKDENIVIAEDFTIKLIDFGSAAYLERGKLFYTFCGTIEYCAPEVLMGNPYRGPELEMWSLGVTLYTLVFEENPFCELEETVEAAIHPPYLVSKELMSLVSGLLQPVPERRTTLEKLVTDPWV
protocolSummary: PAS Kinase Luminescence Assay (Kinase-Glo)
Format: biochemical
Design: IC50 Kinase Domain; host or cells: insect cells
setupConditions: MBP substrate, read-out: IC50 Kinase Domain
pIC50: −log10 of the molar value.
# pIC50 listing for each entry below

smi=COc1ccc(-c2nc3ccc(S(N)(=O)=O)cc3nc2-c2ccc(OC)cc2)cc1 experimentalvalue="≥ 5.00"
smi=CNS(=O)(=O)c1ccc2nc(-c3ccc(OC)cc3)c(-c3ccc(OC)cc3)nc2c1 experimentalvalue="< 5.00"
smi=COc1ccc(-c2nc3ccc(NS(C)(=O)=O)cc3nc2-c2ccc(OC)cc2)cc1 experimentalvalue="≥ 5.00"

API: the following record is the query input.
State, in one line, measured pIC50 of `COc1ccc(-c2nc3ccc(S(=O)(=O)N4CCOCC4)cc3nc2-c2ccc(OC)cc2)cc1` ≥ 5.00
